All values here come from paper PMC4183655.

System: p53-driven luciferase activity in RKO cells
Assay: p53 luciferase reporter assay
Assay type: cell-based, human
Conditions: Homo sapiens, RKO, compound 24 h then doxorubicin 0.3 μM 16 h, read-out: Inhibition of doxorubicin-induced p53-driven luciferase activity IC50
Experimental: Refinement was carried out in refinement cycles. […] The Cell culture and reagents Fluorescence Recovery After Photobleaching (FRAP) Assay In brief RKO cells were transfected with well plate format using Fugene HD (Roche). Compounds were dissolved in dimethyl sulfoxide 5 ul of compound solution was added mixing plates returned to the incubator.
ENDPOINT: IC50 (nM)
Answers are plain numbers, in nM.

What value of IC50 has been reported for the following molecule? COc1ccc(CCc2nc3cc(-c4c(C)noc4C)ccc3n2C[C@H](C)N2CCOCC2)cc1Cl [Compound 59]
1540
